B1: C10orf62 (parent)
chain: TSECPSDKDKSPESHKAKNESWIK

variants of: B1; assay: protein stability index of a GFP-peptide fusion (GPS, HEK-293T) (PSI 1-6); higher = more stable; settings: c terminus: a fixed tail appended;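 also: lentivirally expressed fusions sorted by FACS into six bins by GFP to DsRed ratio, PSI derived from sequencing read proportions per bin multiplied by bin number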
# protein stability index values compiled below
measure: protein stability index

{"columns": ["mutation", "measure", "measured.value"],
 "data": [
  ["S21T", "protein stability index", 3.97],
  ["T1H", "protein stability index", 3.57],
  ["P5F", "protein stability index", 3.28],
  ["S11A", "protein stability index", 3.41],
  ["D9F", "protein stability index", 2.16],
  ["K8N", "protein stability index", 3.31],
  ["T1A", "protein stability index", 2.87],
  ["H15I", "protein stability index", 4.07],
  ["S21H", "protein stability index", 4.95],
  ["C4W", "protein stability index", 2.58],
  ["E20Y", "protein stability index", 4.2],
  ["C4R", "protein stability index", 3.15],
  ["A17W", "protein stability index", 3.5],
  ["S11L", "protein stability index", 3.04],
  ["P5L", "protein stability index", 3.33],
  ["E20Q", "protein stability index", 4.13],
  ["T1M", "protein stability index", 3.23],
  ["A17M", "protein stability index", 2.93],
  ["S6L", "protein stability index", 3.82],
  ["P12K", "protein stability index", 2.86],
  ["S21L", "protein stability index", 3.65],
  ["S11V", "protein stability index", 2.96]
]}
